All values here come from PubChem BioAssay AID493056.

target: Thyrotropin-releasing hormone receptor (Homo sapiens); assay: qHTS for Small Molecule Agonists and Allosteric Enhancers of Human TRH Receptor: Primary Screen for Enhancers; conditions: TRHR cells, fluo-8 calcium fluorescence, EC20 TRH enhancement; at 2 µM
Screen size: about 360,000 compounds; about 2,400 (0.67%) were called active. Cut-off read from the data, not from the text of the source: active = enhancement above about 30%; inactive = the rest. The sample as a whole holds a higher share of actives than the screen did.
Just give me one of these, please: 1 (yes) (active), 0 (no) (inactive)

Request: For "COc1cccc(CNC(=O)Cn2ncn3c(cc4ccccc43)c2=O)c1" , what call appears in the results of this test?
Result: 0 (no)

Request: Entry "CC1=CC(C)(C)N(C(=O)CSc2nnc(-c3ccccc3)o2)c2ccc(C)cc21" please
Result: 1 (yes)

Request: Please answer likewise for "Cc1cccc(-c2nnc(SCC(=O)N3CCCc4ccccc43)o2)c1"
Result: 0 (no)

Request: What do we get for "COc1ccc(CCNC(=O)c2cnc3sc(N4CCCCCC4)nn3c2=O)cc1OC" ?
Result: 0 (no)

Request: Same lookup for "NC(N)=Nc1nc(-c2ccccc2)c2cc(Cl)ccc2n1" , please.
Result: 1 (yes)

Request: Another molecule: "O=c1c(=O)n(Cc2c(F)cccc2Cl)ccn1Cc1ccccc1"
Result: 0 (no)

Request: Now this one: "CC1=CC(C)(C)N(C(=O)CSc2nccn2C)c2cc(C)ccc21"
Result: 0 (no)

Request: Then this molecule: "O=C(CSc1nnc(CNC(=O)c2ccccc2)n1-c1ccc(F)cc1)Nc1ccccc1F"
Result: 0 (no)

Request: Could you do the same for "O=C(NCCS(=O)(=O)N1CCN(c2ccc(F)cc2)CC1)c1ccccc1Br" , please?
Result: 0 (no)

Request: Item: "Cc1ccc(Cn2ncc3c4sc(C)cc4n(C)c3c2=O)c(C)c1"
Result: 0 (no)

Request: Also check "O=C(O)c1ccc(Nc2nc(-c3ccccc3)c3cc(Br)ccc3n2)cc1"
Result: 0 (no)

---

Provide the recorded enhancement for the entries that follow.
target: Thyrotropin-releasing hormone receptor (Homo sapiens); test: qHTS for Small Molecule Agonists and Allosteric Enhancers of Human TRH Receptor: Primary Screen for Enhancers; details: TRHR cells, fluo-8 calcium fluorescence, EC20 TRH enhancement; at 2 µM; stronger effect = higher value
In all, about 360,000 compounds went through this assay and about 2,400 (0.67%) were called active. Only a selection was taken, and actives are over-represented in it overall.
Report the figure in % without appending any unit label.

Request: Give the measured enhancement of O=C(Cn1cnc2ccccc2c1=O)NCC1COc2ccccc2O1 (stereo not given) .
Result: 38.9

Request: Follow-up entry: "COc1ccc2oc(=O)c(-c3cn4c(n3)sc3cc(OC)ccc34)cc2c1"
Result: 1.26

Request: Ok, now CN(C)c1ccc(C(=O)NCC(=O)OC(C(=O)Nc2cc(C(F)(F)F)ccc2Cl)c2ccccc2)cc1 (stereo not given)
Result: -3.56

Request: Next compound: "Oc1c(Br)cccc1/C=N/Nc1c(F)c(F)c(F)c(F)c1F"
Result: 35.3

Request: One more compound: "CN1C(=O)c2cccc3c(N)ccc(c23)C1=O"
Result: 50.3

Request: Input "Cc1c(Cl)cccc1NC(=O)c1noc2c1CCCC2"
Result: 7.16

Request: Then what about the compound "COc1ccc(CCNC(=O)c2cn(C)c3ccc(S(=O)(=O)N(C)C4CCCCC4)cc3c2=O)cc1OC" ?
Result: -14.3

Request: Can you handle "C1=C(N2CCOCC2)/C(=C/c2nc3ccccc3[nH]2)CC1" next?
Result: 3.98

Request: Item: "Cc1nn(C)cc1N1C(=O)c2cccc3c(N)ccc(c23)C1=O"
Result: 30

Request: Now the compound "CC(C)C(=O)N1CCN(c2nc(-c3ccccc3)c3c(c2C#N)CC(C)(C)OC3)CC1"
Result: -1.59
